- subjectOfTest: recombinant human FLAP protein (Homo sapiens)
- Sequence (P20292 1-161): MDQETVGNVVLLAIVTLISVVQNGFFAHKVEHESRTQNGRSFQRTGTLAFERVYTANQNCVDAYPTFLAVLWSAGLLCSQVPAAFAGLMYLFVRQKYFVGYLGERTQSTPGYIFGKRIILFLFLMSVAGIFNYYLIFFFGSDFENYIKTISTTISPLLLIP
- assayMethodText: FLAP binding assay, Scintillation Proximity Assay, displacement of [125I]L-691,831
- assayContext: read-out: hFLAP binding IC50
- Description: Compounds are assessed for the ability to bind to FLAP in a binding assay that measures compound-specific displacement of an iodinated (^1251) FLAP inhibitor via a Scintillation Proximity Assay format (adapted from S. Charleson et al., Mol. Pharmacol., 1992, 41, 873-879). Cell pellets produced from sf9 insect cells expressing recombinant human FLAP protein are resuspended in buffer A [15 mM Tris-HCl (pH 7.5), 2 mM MgCl2, 0.3 mM EDTA, 1 mM PMSF]. […]
observedProperty: pIC50
Answer as the number alone; pIC50 is minus log10 of concentration in mol/L.

Lookup: Output pIC50 of Cc1ccc(C(=O)c2c(CC(C)(C)C(=O)O)c(C(=O)C(C)(C)C)c3cc(OCc4cccc(C)n4)ccn23)cc1
Found: 8.52

Lookup: Output pIC50 of COc1ccc(C(=O)c2c(C[C@@H](C(=O)O)C(C)C)c(C(=O)C(C)(C)C)c3cc(OCc4csc(C)n4)ccn23)cc1
Found: 8.15

Lookup: Output pIC50 of CCCC(Cc1c(C(=O)C(C)(C)C)c2cc(OCc3csc(C)n3)ccn2c1C(=O)c1ccc(OC)cc1)C(=O)O (stereo not shown)
Found: 8.15

Lookup: Output pIC50 of CC(C)(C)C(=O)c1c(CC(C)(C)C(=O)O)c(C(=O)c2ccc(Br)cc2)n2ccc(OCc3ccccn3)cc12
Found: 7.00

Lookup: Output pIC50 of COc1ccncc1-c1ccc(C(=O)c2c(CC(C)(C)C(=O)O)c(C(=O)C(C)(C)C)c3cc(OCc4ccccn4)ccn23)cc1
Found: 7.17

Lookup: Output pIC50 of Cc1nc(COc2ccn3c(C(=O)c4cc(Cl)cc(Cl)c4)c(CC(C)(C)C(=O)O)c(C(=O)C(C)(C)C)c3c2)cs1
Found: 9.00

Lookup: Output pIC50 of CC(C)(C)C(=O)c1c(CC(C)(C)C(=O)O)c(C(=O)c2ccc(Cl)cc2)n2ccc(OCc3nccs3)cc12
Found: 7.60

----------
- subjectOfTest: recombinant human FLAP protein (Homo sapiens)
- assayMethodText: FLAP binding assay, Scintillation Proximity Assay, displacement of [125I]L-691,831
- assayContext: read-out: hFLAP binding IC50
I'd be grateful if you could share measured IC50 for these entries.
Your answer is read as nM, so omit the unit and give the number.

Lookup: Output IC50 of CC(C)(C)C(=O)c1c(CC(C)(C)C(=O)O)c(C(=O)c2ccc(Cl)cc2)n2ccc(OCc3ccccn3)cc12
Found: 44

Lookup: Output IC50 of CC(C)c1ccn2c(C(=O)c3ccc(C(F)(F)F)cc3)c(CC(C)(C)C(=O)O)c(C(=O)C(C)(C)C)c2c1
Found: 316

Lookup: Output IC50 of Cc1nc(COc2ccn3c(C(=O)c4ccc(Cl)c(Cl)c4)c(CC(C)(C)C(=O)O)c(C(=O)C(C)(C)C)c3c2)cs1
Found: 111

Lookup: Output IC50 of CC(C)c1ccn2c(C(=O)N(C)c3ccc(Br)cc3)c(CC(C)(C)C(=O)O)c(C(=O)C(C)(C)C)c2c1
Found: 156

Lookup: Output IC50 of COc1ccc(C(=O)c2c(CC(C(=O)O)C(C)C)c(C(=O)C(C)(C)C)c3cc(OCc4nc(C)cs4)ccn23)cc1 (stereo not drawn)
Found: 4

Lookup: Output IC50 of CC(C)c1ccn2c(C(=O)c3ccc(-c4cccnc4)cc3)c(CC(C)(C)C(=O)O)c(C(=O)C(C)(C)C)c2c1
Found: 165

Lookup: Output IC50 of Cc1cccc(COc2ccn3c(C(=O)c4ccc(Cl)cc4)c(CC(C)(C)C(=O)O)c(C(=O)C(C)(C)C)c3c2)n1
Found: 17

Lookup: Output IC50 of Cc1nc(COc2ccn3c(C(=O)c4ccccc4)c(CC(C)(C)C(=O)O)c(C(=O)C(C)(C)C)c3c2)cs1
Found: 101

Lookup: Output IC50 of CCCC(Cc1c(C(=O)C(C)(C)C)c2cc(OCc3cccc(C)n3)ccn2c1C(=O)c1ccc(Cl)c(Cl)c1)C(=O)O (stereo not drawn)
Found: 2

Lookup: Output IC50 of Cc1nc(COc2ccc3c(C(=O)c4ccc(Cl)cc4)c(CC(C)(C)C(=O)NS(C)(=O)=O)c(C(=O)C(C)(C)C)n3c2)cs1
Found: 4

Lookup: Output IC50 of COc1ccc(C(=O)c2c(CC(C)(C)C(=O)O)c(C(=O)C(C)(C)C)c3cc(OCc4nc5ccccc5s4)ccn23)cc1
Found: 1

Lookup: Output IC50 of Cc1nc(COc2ccn3c(C(=O)c4ccc(Cl)cc4)c(CC(C)(C)C(=O)O)c(C(=O)C(C)(C)C)c3c2)no1
Found: 90

Lookup: Output IC50 of CCCC(Cc1c(C(=O)C(C)(C)C)c2cc(OCc3cccc(C)n3)ccn2c1C(=O)c1ccc(Cl)c(C)c1)C(=O)O (stereo not drawn)
Found: 3

Lookup: Output IC50 of COc1ccc(C(=O)c2c(CC(C(=O)O)C(C)C)c(C(=O)C(C)(C)C)c3cc(OCc4ccc5ccccc5n4)ccn23)cc1 (stereo not drawn)
Found: 1

Lookup: Output IC50 of COc1cccc(COc2ccn3c(C(=O)c4ccc(Cl)cc4)c(CC(C)(C)C(=O)O)c(C(=O)C(C)(C)C)c3c2)n1
Found: 8

Lookup: Output IC50 of COc1ccc(C(=O)c2c(CC(C(=O)O)C(C)C)c(C(=O)C(C)(C)C)c3cc(OCc4nc5ccccc5s4)ccn23)cc1 (stereo not drawn)
Found: 1

Lookup: Output IC50 of CC(C)(C)CC(=O)c1c(CC(C)(C)C(=O)O)c(C(=O)c2ccc(Cl)cc2)n2ccc(OCc3ccc4ccccc4n3)cc12
Found: 85

Lookup: Output IC50 of CC(C)(C)C(=O)c1c(CC(C)(C)C(=O)O)c(C(=O)c2ccc(Cl)cc2)n2ccc(OCc3nc4ccccc4s3)cc12
Found: 4

Lookup: Output IC50 of CC(C)(C)C(=O)c1c(CC(C)(C)C(=O)O)c(C(=O)c2ccc(Cl)cc2)c2ccc(OCc3nc4ccccc4s3)cn12
Found: 9

Lookup: Output IC50 of CCCC(Cc1c(C(=O)C(C)(C)C)c2cc(OCc3nc(C)cs3)ccn2c1C(=O)c1ccc(Cl)c(Cl)c1)C(=O)O (stereo not drawn)
Found: 15

Lookup: Output IC50 of CC(C)(C)C(=O)c1c(CC(C)(C)C(=O)O)c(C(=O)c2ccc(Cl)cc2)c2ccc(OCc3ccccn3)cn12
Found: 79

Lookup: Output IC50 of Cc1csc(COc2ccn3c(C(=O)c4ccc(Cl)c(C)c4)c(CC(C)(C)C(=O)O)c(C(=O)C(C)(C)C)c3c2)n1
Found: 1

Lookup: Output IC50 of CCCC(Cc1c(C(=O)C(C)(C)C)c2cc(OCc3cccc(C)n3)ccn2c1C(=O)c1ccc(OC)cc1)C(=O)O (stereo not drawn)
Found: 3

Lookup: Output IC50 of Cc1cccc(COc2ccc3c(C(=O)c4ccc(Cl)cc4)c(CC(C)(C)C(=O)O)c(C(=O)C(C)(C)C)n3c2)n1
Found: 8

----------
- subjectOfTest: recombinant human FLAP protein (Homo sapiens)
- Sequence (P20292 1-161): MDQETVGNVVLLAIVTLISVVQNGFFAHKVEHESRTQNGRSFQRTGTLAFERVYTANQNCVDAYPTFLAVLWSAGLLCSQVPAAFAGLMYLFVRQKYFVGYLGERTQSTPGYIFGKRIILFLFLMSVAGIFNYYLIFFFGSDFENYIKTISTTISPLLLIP
- assayMethodText: FLAP binding assay, Scintillation Proximity Assay, displacement of [125I]L-691,831
- assayContext: read-out: hFLAP binding IC50
observedProperty: pIC50
Answer as the number alone; pIC50 is minus log10 of concentration in mol/L.

Lookup: Output pIC50 of CCC(C)(Cc1c(C(=O)C(C)(C)C)c2cc(OCc3cccc(C)n3)ccn2c1C(=O)c1ccc(OC)cc1)C(=O)O (stereo not shown)
Found: 8.70

Lookup: Output pIC50 of COc1ccnc(COc2ccn3c(C(=O)c4ccc(Cl)cc4)c(CC(C)(C)C(=O)O)c(C(=O)C(C)(C)C)c3c2)c1
Found: 8.10

Lookup: Output pIC50 of Cc1nc(COc2ccn3c(C(=O)c4ccc(Cl)c(C)c4)c(CC(C)(C)C(=O)O)c(C(=O)C(C)(C)C)c3c2)cs1
Found: 8.70

Lookup: Output pIC50 of COc1cncc(-c2ccc(C(=O)c3c(CC(C)(C)C(=O)O)c(C(=O)C(C)(C)C)c4cc(OCc5ccccn5)ccn34)cc2)c1
Found: 7.66

Lookup: Output pIC50 of COc1ccc(C(=O)c2c(CC(C)(C)C(=O)O)c(C(=O)C(C)(C)C)c3cc(OCc4nc(C)cs4)ccn23)cc1
Found: 8.52

Lookup: Output pIC50 of CCC(C)(Cc1c(C(=O)C(C)(C)C)c2cc(OCc3csc(C)n3)ccn2c1C(=O)c1ccc(OC)cc1)C(=O)O (stereo not shown)
Found: 8.70

Lookup: Output pIC50 of COc1ccc(C(=O)c2c(CC(C)(C)C(=O)O)c(C(=O)C(C)(C)C)c3cc(OCc4ccc5ccccc5n4)ccn23)cc1
Found: 9.00
